- Tgt: WT luciferase (Photinus pyralis)
- Construct: The full firefly (Photinus pyralis) luciferase gene was PCR amplified from pGL3 (Promega); GST (N, cleaved yes); made in house; host or cells: E. coli JM109
- Sequence (P08659 whole entry): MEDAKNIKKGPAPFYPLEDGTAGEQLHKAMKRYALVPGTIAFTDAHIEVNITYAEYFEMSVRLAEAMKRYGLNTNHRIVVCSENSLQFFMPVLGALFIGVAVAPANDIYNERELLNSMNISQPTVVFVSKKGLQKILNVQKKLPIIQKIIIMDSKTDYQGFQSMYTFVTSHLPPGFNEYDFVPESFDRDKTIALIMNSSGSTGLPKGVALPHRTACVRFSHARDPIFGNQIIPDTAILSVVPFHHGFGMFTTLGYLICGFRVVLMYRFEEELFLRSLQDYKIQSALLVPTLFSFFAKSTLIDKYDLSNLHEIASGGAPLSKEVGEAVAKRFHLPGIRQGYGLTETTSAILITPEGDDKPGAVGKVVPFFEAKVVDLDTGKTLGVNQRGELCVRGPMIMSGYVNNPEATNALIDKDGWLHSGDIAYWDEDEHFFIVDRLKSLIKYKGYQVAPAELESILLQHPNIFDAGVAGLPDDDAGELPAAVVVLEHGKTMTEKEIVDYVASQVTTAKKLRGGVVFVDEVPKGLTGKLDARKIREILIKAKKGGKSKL
- Format: biochemical
- Measurement Context: Table 3
// values below are reported Maximum Emission Wavelength of Selected Substrate
Metric Name: Maximum Emission Wavelength of Selected Substrate (nm)

{"columns": ["Compound", "Units Label", "Measured Number"],
 "data": [
  ["CN1CCc2cc3nc(C4=N[C@@H](C(=O)O)CS4)sc3cc21", "nm", 609],
  ["CCCO", "nm", 608],
  ["CC1=CC(C)(C)N(C)c2cc3sc(C4=NC(C(=O)O)CS4)nc3cc21 (stereo not drawn)", "nm", 636]
]}

---

// values below are reported Km
- Tgt: T251S mutant luciferase (Photinus pyralis, UniProt P08659, T251S)
- Construct: The full firefly (Photinus pyralis) luciferase gene was PCR amplified from pGL3 (Promega); GST (N, cleaved yes); made in house; host or cells: E. coli JM109
- Sequence (P08659 whole entry T251S): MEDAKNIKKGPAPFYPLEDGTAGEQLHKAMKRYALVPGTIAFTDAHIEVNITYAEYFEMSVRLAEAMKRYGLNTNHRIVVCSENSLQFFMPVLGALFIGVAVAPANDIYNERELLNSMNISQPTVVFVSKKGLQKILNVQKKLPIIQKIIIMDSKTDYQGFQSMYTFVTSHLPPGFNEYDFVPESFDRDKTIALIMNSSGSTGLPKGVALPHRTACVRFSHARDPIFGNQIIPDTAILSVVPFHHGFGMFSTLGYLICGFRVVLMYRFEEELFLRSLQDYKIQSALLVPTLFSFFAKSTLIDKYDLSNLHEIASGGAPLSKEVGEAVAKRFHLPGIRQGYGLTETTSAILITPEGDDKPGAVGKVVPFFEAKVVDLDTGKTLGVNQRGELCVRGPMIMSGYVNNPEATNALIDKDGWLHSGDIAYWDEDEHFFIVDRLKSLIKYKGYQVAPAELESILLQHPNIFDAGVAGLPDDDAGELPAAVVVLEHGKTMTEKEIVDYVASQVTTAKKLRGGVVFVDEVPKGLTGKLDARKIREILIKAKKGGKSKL
- Measurement Protocol: Titration assay with purified protein
- Type: biochemical
- Measurement Context: 3 minutes post-substrate addition, read-out: Apparent Km

{"columns": ["Compound", "Km [µM]"],
 "data": [
  ["O=C(O)[C@H]1CSC(c2nc3cc4c(cc3s2)NCC4)=N1 [CycLuc1]", 1.83],
  ["CNc1ccc2nc(C3=NC(C(=O)O)CS3)sc2c1 (stereo not shown) [6′-MeNHLH2, Monomethylaminoluciferin]", 0.27],
  ["CN1CCc2cc3nc(C4=N[C@@H](C(=O)O)CS4)sc3cc21 [CycLuc2]", 0.13],
  ["CN(C)c1ccc2nc(C3=NC(C(=O)O)CS3)sc2c1 (stereo not shown) [6′-Me2NLH2]", 0.3]
]}

---

// values below are reported Apparent Vmax
- Tgt: S347A mutant luciferase (Photinus pyralis, UniProt P08659, S347A)
- Construct: The full firefly (Photinus pyralis) luciferase gene was PCR amplified from pGL3 (Promega); GST (N, cleaved yes); made in house; host or cells: E. coli JM109
- Sequence (P08659 whole entry S347A): as the sequence (P08659 whole entry) above, with S347A counted along it
- Format: biochemical
- Measurement Context: purified protein

{"columns": ["Molecule", "Tgt", "Apparent Vmax"],
 "data": [
  ["CN1CCc2cc3nc(C4=N[C@@H](C(=O)O)CS4)sc3cc21 [CycLuc2]", "S347A mutant luciferase (Photinus pyralis, UniProt P08659, S347A)", "7.6 ± 0.05 ×10^−5 cps"],
  ["O=C(O)[C@H]1CSC(c2nc3cc4c(cc3s2)NCC4)=N1 [CycLuc1]", "S347A mutant luciferase (Photinus pyralis, UniProt P08659, S347A)", "135 ± 0.8 ×10^−5 cps"],
  ["O=C(O)[C@H]1CSC(c2nc3ccc(O)cc3s2)=N1 [D-Luciferin, D-luciferin]", "S347A mutant luciferase (Photinus pyralis, UniProt P08659, S347A)", "142.8 ± 3 ×10^−5 cps"],
  ["Nc1ccc2nc(C3=N[C@@H](C(=O)O)CS3)sc2c1 [6′-NH2LH2, 6′-aminoluciferin]", "S347A mutant luciferase (Photinus pyralis, UniProt P08659, S347A)", "91 ± 0.4 ×10^−5 cps"],
  ["CN(C)c1ccc2nc(C3=NC(C(=O)O)CS3)sc2c1 (stereo not drawn) [6′-Me2NLH2]", "S347A mutant luciferase (Photinus pyralis, UniProt P08659, S347A)", "2.1 ± 0.02 ×10^−5 cps"],
  ["CNc1ccc2nc(C3=NC(C(=O)O)CS3)sc2c1 (stereo not drawn) [6′-MeNHLH2, Monomethylaminoluciferin]", "S347A mutant luciferase (Photinus pyralis, UniProt P08659, S347A)", "16 ± 0.2 ×10^−5 cps"]
]}
